System: PC-3
Assay: Cytotoxicity against human PC3 assessed as inhibition of cell growth incubated for 48 hrs by resazurin reduction test
Format: functional, cell-based
Details: PC-3, 48 h
pIC50: −log10 of the molar value.
Catalogue of pIC50 values
reported endpoint: pIC50

>  <line notation>
CC(=O)OC[C@H]1O[C@@H](OC(=O)Nc2ccc(OC(=O)CCCc3ccc(N(CCCl)CCCl)cc3)cc2)[C@H](F)[C@@H](OC(C)=O)[C@@H]1OC(C)=O

>  <measurement>
< 4.30

$$$$
>  <line notation>
CC(=O)OC[C@H]1O[C@@H](Oc2ccc(NC(=O)COC(=O)CCCc3ccc(N(CCCl)CCCl)cc3)cc2)[C@H](F)[C@@H](OC(C)=O)[C@@H]1OC(C)=O

>  <measurement>
< 4.30

$$$$
>  <line notation>
O=C(O)CCCc1ccc(N(CCCl)CCCl)cc1

>  <measurement>
< 4.00

$$$$
>  <line notation>
CC(=O)OC[C@H]1O[C@@H](NC(=O)COC(=O)CCCc2ccc(N(CCCl)CCCl)cc2)[C@H](F)[C@@H](OC(C)=O)[C@@H]1OC(C)=O

>  <measurement>
< 4.30

$$$$
>  <line notation>
CC(=O)OC[C@H]1O[C@@H](Oc2ccc(NC(=O)CC(=O)NCCCc3ccc(N(CCCl)CCCl)cc3)cc2)[C@H](F)[C@@H](OC(C)=O)[C@@H]1OC(C)=O

>  <measurement>
5.10

$$$$
>  <line notation>
CC(=O)OC[C@H]1O[C@@H](NC(=O)c2ccc(OC(=O)CCCc3ccc(N(CCCl)CCCl)cc3)cc2)[C@H](F)[C@@H](OC(C)=O)[C@@H]1OC(C)=O

>  <measurement>
< 4.30

$$$$
>  <line notation>
CC(=O)OC[C@H]1O[C@@H](NC(=O)c2ccc(NC(=O)CNC(=O)CCCc3ccc(N(CCCl)CCCl)cc3)cc2)[C@H](F)[C@@H](OC(C)=O)[C@@H]1OC(C)=O

>  <measurement>
5.22

$$$$

* * *

Tested on: M4Beu cell line
Test: Cytotoxicity against human M4Beu assessed as inhibition of cell growth incubated for 48 hrs by resazurin reduction test
Assay type: functional, cell-based
Kindly apply the following: true if IC50 is less than 6 µM, false in every other case.

>  <line notation>
CC(=O)OC[C@H]1O[C@@H](OC(=O)Nc2ccc(NC(=O)CCCc3ccc(N(CCCl)CCCl)cc3)cc2)[C@H](F)[C@@H](OC(C)=O)[C@@H]1OC(C)=O

>  <assigned class>
false

$$$$
>  <line notation>
CC(=O)OC[C@H]1O[C@@H](Oc2ccc(NC(=O)CNC(=O)CCCc3ccc(N(CCCl)CCCl)cc3)cc2)[C@H](F)[C@@H](OC(C)=O)[C@@H]1OC(C)=O

>  <assigned class>
false

$$$$
>  <line notation>
CC(=O)OC[C@H]1O[C@@H](OC(=O)Nc2ccc(OC(=O)CCCc3ccc(N(CCCl)CCCl)cc3)cc2)[C@H](F)[C@@H](OC(C)=O)[C@@H]1OC(C)=O

>  <assigned class>
false

$$$$
>  <line notation>
CC(=O)OC[C@H]1O[C@@H](Oc2ccc(NC(=O)c3ccc(NC(=O)CCCc4ccc(N(CCCl)CCCl)cc4)cc3)cc2)[C@H](F)[C@@H](OC(C)=O)[C@@H]1OC(C)=O

>  <assigned class>
true

$$$$
>  <line notation>
CC(=O)OC[C@H]1O[C@@H](OC(=O)Nc2ccc(NC(=O)CNC(=O)CCCc3ccc(N(CCCl)CCCl)cc3)cc2)[C@H](F)[C@@H](OC(C)=O)[C@@H]1OC(C)=O

>  <assigned class>
false

$$$$
